These entries and their values trace back to ChEMBL document CHEMBL3739335.

Experiment: Chemical stability of the compound in buffer assessed as compound remaining at pH 2 after 24 hrs by HPLC analysis
Type: physicochemical
Details: read-out: Stability
experimental_endpoint: remaining at 24 h (%)
Answers are plain numbers, in %.

[ask] Item CC(C)[C@]12O[C@H]1[C@@H]1O[C@]13[C@]1(O[C@H]1C[C@H]1C4=C(CC[C@@]13C)C(=O)OC4)[C@@H]2OCOP(=O)([O-])[O-].[Na+].[Na+] [MINNELIDE] has what recorded remaining at 24 h?
[reply] 83

---

Test: Chemical stability of the compound in buffer assessed as compound remaining at pH 7.4 after 1 hr by HPLC analysis
Type: physicochemical
Conditions: read-out: Stability
experimental_endpoint: remaining at 1 h (%)
One number for each entry, in %.

[ask] Given the compound CC(C)[C@]12O[C@H]1[C@@H]1O[C@]13[C@]1(O[C@H]1C[C@H]1C4=C(CC[C@@]13C)C(=O)OC4)[C@@H]2OCOP(=O)([O-])[O-].[Na+].[Na+] [MINNELIDE] , what is its reported remaining at 1 h?
[reply] 100
